Measured values drawn from PubChem BioAssay (NCI) for this set.

- System: UACC-257 melanoma
- Method Notes: NCI tumour cell line growth inhibition, 48 h
Measurement Name: GI50

In the examples that follow, each entry is paired with its recorded GI50.
Cc1ccc(C(=O)N2C/C(=C/c3ccccc3)C(=O)/C(=C/c3ccccc3)C2)cc1    10100 nM
CCN(CC)CCS(=O)(=O)CCNc1ccnc2cc(Cl)ccc12    5130 nM
CC(C)C/C(=N\NC(=O)c1ccncc1)c1cc(Cl)ccc1O    410 nM
Cc1cc(-c2ccco2)cc(C)c1/C=C/c1cncc(-c2nn[nH]n2)c1    > 25000 nM
O=C(/C=C/c1cccc(Oc2ccc(Cl)cc2)c1)c1ccccc1    185000 nM
CCN(CC)Cc1cc(Nc2cc(C(F)(F)F)c(C#N)c3nc4ccccc4n23)ccc1O    1930 nM
C=C(C)[C@@H]1CC[C@]2(C(=O)n3ccnc3)CC[C@]3(C)[C@H](CC[C@@H]4[C@@]5(C)CCCNC(C)(C)[C@@H]5CC[C@]43C)[C@@H]12    2020 nM
Nc1c(C(=O)Nc2ccccn2)sc2nc3c(cc12)CCCCCC3    7880 nM

Prompt: Write down measured GI50 (UACC-257 melanoma) for this compound. "CCN(CCNc1ccc(C)c2sc3cc(Cl)ccc3c(=O)c12)CC(C)(C)O"
Completion: 2030 nM

Prompt: Write down measured GI50 (UACC-257 melanoma) for this compound. "COc1ncc2cc1NS(=O)(=O)c1cccc(c1)C(=O)NCC1=CC=C(S1)c1ncnc3c1SC2=C3C"
Completion: 371 nM

Prompt: Write down measured GI50 (UACC-257 melanoma) for this compound. "CCc1ccc(C2=NN(c3ccc(S(C)(=O)=O)cc3)C(=O)CC2)cc1"
Completion: 1680 nM

Prompt: Write down measured GI50 (UACC-257 melanoma) for this compound. "Nc1ccn([C@@H]2S[C@H](CO)[C@@H](O)[C@@H]2F)c(=O)n1"
Completion: 1340 nM

Prompt: Write down measured GI50 (UACC-257 melanoma) for this compound. "O=C(CN(/C=C/C(=O)C(F)(F)F)c1ccccc1)c1ccc(F)cc1"
Completion: 19100 nM
